Source of measurements: PubChem BioAssay (NCI)

System: SR leukemia
Assay: NCI tumour cell line growth inhibition, 48 h
So I've got a bunch of compounds here, and I need their TGI values.

List TGI for every entry below, keeping the order given.
1. CN(C)CC/C(=N\Nc1ccc(Cl)cc1Cl)c1ccccc1
2. O=C(CC/C(CC(=O)c1ccc(Br)cc1)=N\O)Nc1ccc(Cl)c(Cl)c1
3. Cc1ccc(Sc2cc3c(oc2=O)-c2ccccc2OC3O)cc1 (stereo unspecified)
4. CCSc1ccc(C2C(Br)C(=O)N2c2cc(OC)c(OC)c(OC)c2)cc1 (stereo unspecified)
5. CC(C)(C)CC(C)(C)c1ccc(O)c(C[N+](C)(C)[O-])c1
6. O=C(NC(=O)c1ccccc1[N+](=O)[O-])Nc1ccc(Oc2ncc(Cl)cn2)c(C(F)(F)F)c1
7. Cc1c(C(=O)O)n2cnnc2c2ccccc12
8. C=CC(C)(C)C(=C)C(=O)Nc1ccccc1I

1: 32.3 µM; 2: > 100 µM; 3: 46.3 µM; 4: 26.3 µM; 5: > 100 µM; 6: > 100 µM; 7: > 100 µM; 8: > 100 µM

---

Tested on: KM12 colon
Assay: NCI tumour cell line growth inhibition, 48 h
assayEndpoint: TGI (µM)
Answers are plain numbers, in µM.

{"compound": "O=C(c1ccccc1)c1c(C(F)(F)F)n([O-])c2ccc(C(F)(F)F)cc2[n+]1=O", "target": "KM12 colon", "unitSpec": "µM", "readoutNumber": 0.903}
{"compound": "O=C1/C(=C/c2ccc(Br)cc2)CCC/C1=C\\c1ccc(Br)cc1", "target": "KM12 colon", "unitSpec": "µM", "readoutNumber": 10.9}
{"compound": "O=C1C(Cl)=C(Nc2cccc(C(F)(F)F)c2)C(=O)N1Cc1ccc(Cl)cc1", "target": "KM12 colon", "unitSpec": "µM", "readoutNumber": 19.6}
{"compound": "CCC(NC1=NCCO1)c1cccs1 (stereo not drawn)", "target": "KM12 colon", "unitSpec": "µM", "readoutNumber": 36}
{"compound": "C[C@H]1COC2=C1C(=O)C(=O)c1c2ccc2c1CCCC2(C)C", "target": "KM12 colon", "unitSpec": "µM", "readoutNumber": 37}
{"compound": "Nc1ncc(-c2cccc(S(N)(=O)=O)c2)c2scc(-c3ccc(F)c(Cl)c3)c12", "target": "KM12 colon", "unitSpec": "µM", "readoutNumber": 14.7}
{"compound": "CN(C)CC/C(=N\\Nc1ccc(Cl)cc1Cl)c1ccccc1", "target": "KM12 colon", "unitSpec": "µM", "readoutNumber": 31.2}
{"compound": "CC(C)(C)c1ccc(NS(=O)(=O)c2ccc3nc(NC(=O)c4cnccn4)[nH]c3c2)cc1", "target": "KM12 colon", "unitSpec": "µM", "readoutNumber": 13.9}

We now examine a further compound.
// fetch TGI given entry O=C(NC(=O)c1ccccc1[N+](=O)[O-])Nc1ccc(Oc2ncc(Cl)cn2)c(C(F)(F)F)c1 3.63

---

Test system: IGROV1 ovarian
Test: NCI tumour cell line growth inhibition, 48 h
assayEndpoint: TGI

Known results for molecules:
{"entrySmiles": "O=C(NC(=O)c1ccccc1[N+](=O)[O-])Nc1ccc(Oc2ncc(Cl)cn2)c(C(F)(F)F)c1", "target": "IGROV1 ovarian", "TGI": "> 100 µM"}
{"entrySmiles": "CCOC(=O)C(NC(=O)OC(C)(C)C)C(=O)OCC", "target": "IGROV1 ovarian", "TGI": "> 100 µM"}
{"entrySmiles": "CC(C)(C)OC(=O)NCC(=O)N1CCN(C(=O)CNC(=O)OC(C)(C)C)CC1", "target": "IGROV1 ovarian", "TGI": "> 100 µM"}
{"entrySmiles": "O=C1c2ccccc2C(=O)c2[nH]c(Cc3ccc(F)cc3)nc21", "target": "IGROV1 ovarian", "TGI": "26.2 µM"}

Please list TGI recorded for the molecule CN(C)CC/C(=N\Nc1ccc(Cl)cc1Cl)c1ccccc1 22.8 µM

---

System: OVCAR-8 ovarian
Assay: NCI tumour cell line growth inhibition, 48 h; in the data active means GI50 below about 0.43 µM; inactive means the rest
Return exactly one item of T for active, F for inactive

{"compound": "N.N.O=P([O-])([O-])C1(P(=O)([O-])[O-])CCCCCN1.[Pt+2]", "assignedClass": "F"}

// outcome(item) with item = O=Nc1c(-c2c(O)[nH]c3ccc(Br)cc23)[nH]c2ccccc12 F

Called result for CN(C)/N=N/c1nc[nH]c1C(N)=O F

Lab log entry: Cc1ccc(Sc2cc3c(oc2=O)-c2ccccc2OC3O)cc1 (centres undefined) — outcome as called in the assay? F

Any idea what this test logged for Cc1cc(C(=O)c2ccccc2)c(C)c2c1[nH]c1ccc(Cl)cc12 ? T

Outcome logged for COc1cc(NC(=O)C2=C(N3CCOCC3)/C(=C/c3ccc(Cl)cc3)CC2)cc(OC)c1OC in this assay: F

Hello, I am checking results. What call was entered for COc1cccc2c1n([O-])c1cccc(OC)c1[n+]2=O ? F

Give the logged outcome of this assay for the following compound: Oc1ccc(N=Nc2ccccn2)c(O)c1 F

Check the results log: what was the call for CC(=O)[O-].O=C([CH-]C(=O)c1ccccc1)c1ccccc1.O=C([CH-]C(=O)c1ccccc1)c1ccccc1.[Sm+3] ? F

---

System: HT29 colon
Test: NCI tumour cell line growth inhibition, 48 h
Would you kindly list TGI for each of these compounds?

Solved cases below.
{"compound": "O=C(NC(=O)c1ccccc1[N+](=O)[O-])Nc1ccc(Oc2ncc(Cl)cn2)c(C(F)(F)F)c1", "TGI": "0.167 µM"}
{"compound": "COC(=O)C(C)NC(=O)c1ccccc1I(OS(=O)(=O)C(F)(F)F)c1ccccc1 (stereo not given)", "TGI": "> 61.4 µM"}
{"compound": "O=[N+]([O-])c1ccc(C=NC23CC4CC(CC(C4)C2)C3)cc1", "TGI": "> 100 µM"}

Batch request: TGI per item, same order as input.
1. O=NN(CCCl)C(=O)NC1CCC(CC2CCC(NC(=O)N(CCCl)N=O)CC2)CC1 (stereo not given)
2. CCN(Cc1c(Cl)cccc1Cl)c1ccc(CO)c(Cl)c1

["> 100 µM", "15.3 µM"]

---

Test system: OVCAR-3 ovarian
Assay: NCI tumour cell line growth inhibition, 48 h
Exercise: state measured TGI for each of the compounds provided.

Answered cases to consult:
{"compound": "CN(Cc1cc(Cl)c(Cl)cc1NC(=O)CN)[C@H]1CCCC[C@@H]1N1CCCC1", "TGI": "> 100 µM"}
{"compound": "COc1ccc(C[C@H](N)C(=O)N2C[C@@H](CO)C[C@@H](n3ccc(=O)[nH]c3=O)C2)cc1", "TGI": "> 100 µM"}
{"compound": "CCC(NC1=NCCO1)c1cccs1 (stereo not drawn)", "TGI": "30.6 µM"}
{"compound": "Cc1cccc(Cc2cnc(NC(=O)CCc3ccc(C)o3)s2)c1", "TGI": "0.731 µM"}

// batch mode: one TGI value per listed entry
1. C=CC(C)(C)C(=C)C(=O)Nc1ccccc1I
2. Cc1c([N+](=O)[O-])oc2ccc3ccccc3c12
3. CNc1ncnc2c1cnn2Cc1cn(COCC(O)CO)nn1 (stereo not drawn)
4. NC1CC=C(COC(=O)C(O)(c2ccccc2)C2CC2)CC1 (stereo not drawn)
5. CSc1scc2c1/C(=N/NC(N)=O)CCC2
6. Cc1cc(C(=O)c2ccccc2)c(C)c2c1[nH]c1ccc(Cl)cc12
7. O=C1C(Cl)=C(Nc2cccc(O)c2)C(=O)N1Cc1ccc(Cl)cc1Cl
8. COc1ccc(C2=NN=C3C(c4ccccc4)=Nc4ccccc4N3C2)cc1

> 100 µM
> 100 µM
> 100 µM
> 100 µM
> 100 µM
9.8 µM
26.4 µM
6.52 µM

---

Tested on: PC-3 prostate
Test: NCI tumour cell line growth inhibition, 48 h
Could you please report measured GI50 for the items listed next?

{"molecule": "Cc1cc(C(=O)c2ccccc2)c(C)c2c1[nH]c1ccc(Cl)cc12", "GI50": "52.6 nM"}
{"molecule": "COc1c(B(O)O)cc(F)cc1-c1nc2ccc3[nH]ncc3c2c2c1CCCC2", "GI50": "1900 nM"}

Item C=CC(COC(c1ccccc1)(c1ccccc1)c1ccccc1)N(CC)CC (stereo not drawn) : provide GI50 4020 nM

---

System: MOLT-4 leukemia
Test: NCI tumour cell line growth inhibition, 48 h
*1 amine or outer side, *2 acyl side, *3 side chain or, on linkers, in order; H or OH if unused. Where a SMILES comes first, the peptide text is derived from it. Bridges are numbered along the chain shown (N, C = ends). Roman numbers before positions name the chains, in order. [ ]: non-standard residue; d: D form. Actinocin(9to1) = Cc1c2oc3c(C)ccc(C(=O)[*:1])c3nc-2c(C(=O)[*:2])c(N)c1=O; NMeF = CN[CH](Cc1ccccc1)C(=O)O; Sar = CNCC(=O)O
assayEndpoint: TGI

Use the examples below as a reference point.
{"compound": "Nc1c(C(=O)Nc2cccc(Cl)c2Cl)sc2nc3c(cc12)C(=O)CCC3", "TGI": "> 100 µM"}
{"compound": "COc1ccc(C[C@H](N)C(=O)N2C[C@@H](CO)C[C@@H](n3ccc(=O)[nH]c3=O)C2)cc1", "TGI": "> 100 µM"}

Hi! Can you tell me TGI for each of these compounds?
1. CCOC(=O)N1CCC(=C2c3ccc(Cl)cc3CCc3cccnc32)CC1
2. Cc1cn(S(=O)(=O)c2ccccc2)c2c(OCc3ccccc3)cc(NS(C)(=O)=O)cc12
3. Cn1cccc1/C=C/c1cc(Br)c(/C=C/c2cccn2C)cc1Br
4. O=C(CCCCC(=O)N/N=C\c1ccccc1O)N/N=C\c1ccccc1O
5. Cc1c2oc3c(C)ccc(C(=O)NC4C(=O)NC(C(C)C)C(=O)N5CCCC5C(=O)N(C)CC(=O)N(C)C(Cc5ccccc5)C(=O)OC4C)c3nc-2c(C(=O)NC2C(=O)NC(C(C)C)C(=O)N3CCCC3C(=O)N(C)CC(=O)N(C)C(Cc3ccccc3)C(=O)OC2C)c(N)c1=O (stereo not drawn) (I: TVP[Sar][NMeF] / II: TVP[Sar][NMeF]; ester I:1-I:C, II:1-II:C; linker I:N-II:N via Actinocin(9to1); configuration not given here)

1: 33.3 µM; 2: > 24.8 µM; 3: 43.2 µM; 4: > 100 µM; 5: 0.00414 µM
